Data credit: patent US20250101096A1

Items are presented alongside their recorded Response Ratio.
Biological target: T1, human insulin-like growth factor binding protein 4 (IBP4) (human, UniProt P22692 22-258)
T1 construct: also called IBP4 protein; IGFBP4
T1 sequence: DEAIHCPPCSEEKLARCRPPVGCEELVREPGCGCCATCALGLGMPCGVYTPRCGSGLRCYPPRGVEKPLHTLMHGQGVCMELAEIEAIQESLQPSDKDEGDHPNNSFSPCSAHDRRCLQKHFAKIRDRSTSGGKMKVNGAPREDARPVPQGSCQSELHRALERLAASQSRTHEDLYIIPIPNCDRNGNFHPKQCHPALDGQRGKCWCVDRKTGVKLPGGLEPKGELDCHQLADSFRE
Test: AC-MS, mAb on M-PVA beads, pooled pregnant serum, peptide …
Note: the reply should be a number with no unit written.

binder | Response Ratio
anti-IBP4 antibody 3D4.E9 (antibody, mouse IgG2b, kappa, V domains shown, Mouse hybridoma mAb raised against FL IBP4; also called IBP4-3D4.E9) VH: QVQLQQSGAELVRPGASVTLSCKASGYTFTDYEMHWVKQTPVHGLEWIGAIDPETGGAAYNQKFKGKAILTADKSSSTAYMELRSLTSEDSAVYYCTRARGSSSVYYFDYWGQGTTLTVSS VL: DIVMTQSQKFMSTSVGDRVSVTCKASQNVGTNVAWYQQKPGQSPKALIYSTSYRYSGVPDRFTGSRSGTDFILTISNVQSEDLAEYFCQQYDSYPLTFGSGTKLEIKR | 0.439
anti-IBP4 antibody 5C11.A7 (antibody, mouse IgG1, kappa, V domains shown, Mouse hybridoma mAb raised against FL IBP4; also called IBP4-5C11.A7) VH: QVQLQQSGAELVRPGASVTLSCKASGYTFTDYEMHWVRQTPVHGLEWIGAIDTETGGPAYNQKFKGKAILTADKSSSTAYMELRSLTSEDSAVYFCTRARGSRSVYYFDNWGQGTTLTVSS VL: DIVMTQSQKFMSTSVGDRVSVTCKASQNVGTNVAWYQQKPGHSPKVLIYSASYRHSGVPDRFTGSGSGTDFTLTIGNVQSEDLADYFCQQYDTYPLTFGSGTKLEIKR | 0.548
anti-IBP4 antibody 7G11.H4 (antibody, mouse IgG1, kappa, V domains shown, Mouse hybridoma mAb raised against FL IBP4; also called IBP4-7G11.H4) VH: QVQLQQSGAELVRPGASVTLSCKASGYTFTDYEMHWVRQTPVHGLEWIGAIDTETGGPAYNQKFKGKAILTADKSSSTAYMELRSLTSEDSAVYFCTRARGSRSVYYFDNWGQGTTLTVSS VL: DIVMTQSQKFMSTSVGDRVSVTCKASQNVDTNIAWYQQKPGHSPKALIYSASYRYSGVPDRFTGSGSGTDFTLTIGNVQSEDLADYFCQQYDTYPLTFGSGTKLEIKR | 0.525

Please look at the following binder next.
Lookup: Quickly give me recorded Response Ratio for anti-IBP4 antibody 1H9.B6 (antibody, mouse IgG1, kappa, V domains shown, Mouse hybridoma mAb raised against FL IBP4; also called IBP4-1H9.B6) VH: EVQLQQSGPELVKPGASVKISCKTSGYTFTDYYMNWVKQSHGKSLEWIGDINPNNGGAGYNQKFKGKATLTVDKSSSTAYMELRSLTSEDSAVYYCARWGWDRYFDYWGQGTTLTVSS VL: DIVMTQSQKFMSTSVGDRVSVTCKASQNVGIDVAWYQQKPGQSPKALIYSASYRSSGVPDRFTGSGSGTDFTLTINNVQSEDLAEYFCQQYNSYPLAFGSGTKLEIKR
Found: 0.588
